Where these numbers come from: the RNAGym collection of RNA variant scans (doi:10.1021/acssynbio.7b00057)

Please provide measured aptazyme ON/OFF ratio for the entries that follow.
B1: Pistol ribozyme (parent)
chain: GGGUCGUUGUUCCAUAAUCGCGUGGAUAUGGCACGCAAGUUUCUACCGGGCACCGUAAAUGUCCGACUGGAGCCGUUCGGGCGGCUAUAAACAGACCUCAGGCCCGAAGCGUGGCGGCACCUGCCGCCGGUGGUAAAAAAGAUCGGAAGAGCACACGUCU

# Variants of: B1
# METHOD: aptazyme ON/OFF ratio, guanine; higher = stronger switching; co-transcriptional cleavage with and without guanine
A bare number is all that is needed in reply.

Form: variant = U7A U10A U11A C12U C13G ; aptazyme ON/OFF ratio = 1.26

Form: variant = U7G U8G G9U U10C U11C C12A C13U ; aptazyme ON/OFF ratio = 1.53

Form: variant = U7C U10C U11A C12A C13A ; aptazyme ON/OFF ratio = 1.49

Form: variant = U7G U8A G9A U11G C12G C13U ; aptazyme ON/OFF ratio = 1.1

Form: variant = U7A G9C U10G U11C C12A C13G ; aptazyme ON/OFF ratio = 1.05

Form: variant = U7G G9A U10G U11C C12U C13A ; aptazyme ON/OFF ratio = 1.08

Form: variant = U7G C13G ; aptazyme ON/OFF ratio = 1.05

Form: variant = U7A U8C G9A U10C U11G C12G C13U ; aptazyme ON/OFF ratio = 1.1

Form: variant = U7A U8C G9U U10G C13G ; aptazyme ON/OFF ratio = 1.16

Form: variant = U7C U8A G9C U10G U11G C13G ; aptazyme ON/OFF ratio = 1.11

Form: variant = U7A U8A G9A U11A C13U ; aptazyme ON/OFF ratio = 1.19

Form: variant = U7C U10A U11C C12U ; aptazyme ON/OFF ratio = 1.03

Form: variant = U7G U8C U10G C12A C13A ; aptazyme ON/OFF ratio = 1.12

Form: variant = U7G U8A G9U U10G ; aptazyme ON/OFF ratio = 1.51

Form: variant = U8C G9A U10A U11G C13U ; aptazyme ON/OFF ratio = 1.18

Form: variant = U7C U8A G9U U10A U11C C13G ; aptazyme ON/OFF ratio = 1.05

Form: variant = U8G G9C U11C C13A ; aptazyme ON/OFF ratio = 1.06

Form: variant = U7C U8A G9A U10C U11G C12G C13U ; aptazyme ON/OFF ratio = 1.11

Form: variant = U8A U10A U11G C12U C13A ; aptazyme ON/OFF ratio = 1.2

Form: variant = U7G U8A G9C U11G C12U ; aptazyme ON/OFF ratio = 1.14

Form: variant = U7A U8A G9A U10G U11A ; aptazyme ON/OFF ratio = 1.02

Form: variant = U7G G9C U10G U11G C13G ; aptazyme ON/OFF ratio = 1.21

Form: variant = U7C U8G U10G C12U C13U ; aptazyme ON/OFF ratio = 1.37

Form: variant = U7C U8A G9A U10G U11C C12A C13A ; aptazyme ON/OFF ratio = 1.15

Form: variant = U7C U10C U11A C13A ; aptazyme ON/OFF ratio = 1.14

Form: variant = U7G U8G G9C U10G C13A ; aptazyme ON/OFF ratio = 1.31

Form: variant = U7C G9A C12G ; aptazyme ON/OFF ratio = 1.14

Form: variant = U7G U8A G9C U10G U11G C12G C13A ; aptazyme ON/OFF ratio = 1.05

Form: variant = U7A U8C U10G U11G C12U C13U ; aptazyme ON/OFF ratio = 1.24

Form: variant = U8C U10A U11A C13A ; aptazyme ON/OFF ratio = 1.17

Form: variant = U7G U8C U11G C12A C13G ; aptazyme ON/OFF ratio = 1.15

Form: variant = U7A U8C G9A U11C C12G ; aptazyme ON/OFF ratio = 1.24

Form: variant = U7G U11G C12G C13U ; aptazyme ON/OFF ratio = 1.04

Form: variant = U7G U8G U10G U11G C12U C13G ; aptazyme ON/OFF ratio = 1.13

Form: variant = U7A G9A U10A U11A C12G C13G ; aptazyme ON/OFF ratio = 1.21

Form: variant = U7A U8G G9A U10G C12A ; aptazyme ON/OFF ratio = 1.24

Form: variant = U7A U8G G9C U11A C12G ; aptazyme ON/OFF ratio = 1.34

Form: variant = U7G U8C G9A U10G U11G C12G C13A ; aptazyme ON/OFF ratio = 1.13

Form: variant = U7G G9A U10A C12U C13A ; aptazyme ON/OFF ratio = 1.14

Form: variant = U7A U8G G9U U11G C12U C13A ; aptazyme ON/OFF ratio = 1.18

Form: variant = U7G U11G C12G C13A ; aptazyme ON/OFF ratio = 1.09

Form: variant = U7G U8C G9C U10C U11G ; aptazyme ON/OFF ratio = 1.05

Form: variant = U8G G9U U10G U11A C12U ; aptazyme ON/OFF ratio = 1.03

Form: variant = U7C U8A G9A U10A C13A ; aptazyme ON/OFF ratio = 1.15

Form: variant = U8G G9U C12G C13A ; aptazyme ON/OFF ratio = 1.3

Form: variant = U7A U8G G9U C12U C13U ; aptazyme ON/OFF ratio = 1.26
